- System: B cell receptor-mediated activation of B cells in human blood (CD69 expression)
- experimental protocol: Inhibition of B cell activation in whole blood measured by CD69 expression
- Assay type: cell-based
- run conditions: anti-IgM stimulation, 20 h, 50% decrease of CD69-positive cells that are also CD20-positive
In this section, each of the molecules is paired with its reported pIC50.
Recall that pIC50 is obtained by taking minus log10 of the concentration measured in molar.

Some molecules with recorded pIC50:
Cn1cc(-c2cccc(-n3ncc4cc(C(C)(C)C)cc(F)c4c3=O)c2CO)cc(Nc2ccc(C(=O)O)cn2)c1=O [Example I-34] :: 6.59
Cn1cc(-c2cccc(-n3ncc4cc(C(C)(C)C)cc(F)c4c3=O)c2CO)cc(Nc2ccc(CO)cn2)c1=O [Example I-26] :: 7.04

Query pIC50 on B cell receptor-mediated activation of B cells in human blood (CD69 expression) for Cn1cc(-c2cccc(-n3ncc4cc(C(C)(C)C)cc(F)c4c3=O)c2CO)cc(Nc2ccc(N3CCC(C)(O)CC3)cn2)c1=O [Example I-17]
8.00

Item: Cn1cc(-c2cccc(-n3ccc4cc(C(C)(C)C)cc(F)c4c3=O)c2CO)cc(Nc2ccc(C(=O)N3CCOCC3)cn2)c1=O [Example I-63]
7.80

Item: Cn1cc(-c2cccc(-n3ncc4cc(C(C)(C)C)cc(F)c4c3=O)c2CO)cc(Nc2ccc(C(C)(C)C(=O)N3CCOCC3)cn2)c1=O [Example I-21]
7.96

Item: CC(O)c1ccc(Nc2cc(-c3cccc(-n4ccc5cc(C6CC6)cc(F)c5c4=O)c3CO)cn(C)c2=O)nc1 (stereo not shown) [Example I-74]
7.54
